# Test system: CP215
# Assay: qHTS profiling for inhibitors of Plasmodium falciparum proliferation (AID 504749); further: nearly all actives have a fitted effect of over 60% in size
# Measurement Context: P. falciparum in erythrocytes, SYBR Green DNA, 72 h; series mostly up to 28.7 µM
Results filed as inconclusive are left out. Active and inactive are the calls of the source. The call rests on the fitted dose curve; in most records, active means well fitted inhibition curve with a large enough effect; inconclusive means small, poorly fitted or top-dose-only effect; inactive means flat fitted curve, though single readings scatter.
Reply using exactly one outcome from 1.0 = active, 0.0 = inactive

These solved cases illustrate the format of a correct answer.
Compound	Assigned Class
COc1cc2c(cc1OC)C(C(C(=O)N(CCc1ccc(OC)c(OC)c1OC)CCc1ccc(OC)c(OC)c1OC)c1ccccc1)=NCC2 (stereo not drawn)	1.0
CCOc1ccc(NC(=O)CC(C)O)cc1 (stereo not drawn)	0.0
CCCCCCc1ccc(O)cc1O	0.0
CN=C(NC#N)NCCSCc1csc(N=C(N)N)n1	0.0
COc1cc(OC)cc(OC)c1	0.0
CN1C(CCl)Nc2cc(Cl)c(S(N)(=O)=O)cc2S1(=O)=O (stereo not drawn)	0.0
CCN1CCCC1=O	0.0
C[C@]12CCC(=O)C=C1CC[C@H]1[C@@H]3CC[C@](O)(C(=O)CO)[C@@]3(C)C[C@H](O)[C@@]12F	0.0

(Q) Could you please tell me the result logged for CCN(CC)C(=O)N1CCN(C)CC1 in this assay?
(A) 0.0

(Q) Could you please tell me the result logged for CC(=O)N(O)CCCCCNC(=O)CCC(=O)N(O)CCCCCNC(=O)CCC(=O)N(O)CCCCCN in this assay?
(A) 0.0

(Q) Could you please tell me the result logged for CCCCCCCCCCOCC(O)CN (stereo not drawn) in this assay?
(A) 0.0

(Q) Could you please tell me the result logged for CCOC(=O)n1ccn(C)c1=S in this assay?
(A) 0.0

(Q) Could you please tell me the result logged for NC(CO)(CO)CO in this assay?
(A) 0.0

----------
# System: W2
# Assay: qHTS profiling for inhibitors of Plasmodium falciparum proliferation (AID 504749); further: nearly all actives have a fitted effect of over 60% in size
# Measurement Context: P. falciparum in erythrocytes, SYBR Green DNA, 72 h; series mostly up to 28.7 µM
Inconclusive results are not listed. Activity calls are given as the source filed them. Calls follow the shape of the dose curve; as a rule, active = well fitted inhibition curve with a large enough effect; inconclusive = small, poorly fitted or top-dose-only effect; inactive = flat fitted curve, though single readings scatter.
Reply using exactly one outcome from true for active, false for inactive

These solved cases illustrate the format of a correct answer.
Compound	Assigned Class
Oc1ccc(O)cc1	true
CCN(CC)CCOC(=O)C(c1ccccc1)C1CCCCC1 (stereo unspecified)	true

(Q) Could you please tell me the result logged for C#C[C@]1(OC(C)=O)CC[C@H]2[C@@H]3CCC4=C[C@@H](OC(C)=O)CC[C@@H]4[C@H]3CC[C@@]21C in this assay?
(A) false

(Q) Could you please tell me the result logged for CN1CCC(=C2c3ccccc3Sc3ccccc32)CC1 in this assay?
(A) true

(Q) Could you please tell me the result logged for CC(=O)Nc1c(I)cc(I)c(C(=O)O)c1I in this assay?
(A) false

(Q) Could you please tell me the result logged for C[N+]1(CCCCC[N+]2(C)CCCC2)CCCC1 in this assay?
(A) false

----------
# Test system: DFO2036
# Assay: qHTS profiling for inhibitors of Plasmodium falciparum proliferation (AID 504749); further: nearly all actives have a fitted effect of over 60% in size; further: potency means the concentration at half of the fitted maximal effect
# Measurement Context: P. falciparum in erythrocytes, SYBR Green DNA, 72 h; series mostly up to 28.7 µM
Records with an inconclusive call do not appear. The source made the active and inactive calls. Calls follow the shape of the dose curve; as a rule, active = well fitted inhibition curve with a large enough effect; inconclusive = small, poorly fitted or top-dose-only effect; inactive = flat fitted curve, though single readings scatter.
Quantity: Potency

# annotated cases, reported Potency shown
Smiles Entry	System	Potency
CN1CCC[C@@H]1c1cccnc1	DFO2036	inactive
CN(C)CCOc1ccccc1Cc1ccccc1	DFO2036	6.31 µM (active)
Cc1c(N(C)CS(=O)(=O)O)c(=O)n(-c2ccccc2)n1C	DFO2036	inactive
CC(C)COC(=O)OCN1C(=O)CN(CCN2CC(=O)N(COC(=O)OCC(C)C)C(=O)C2)CC1=O	DFO2036	inactive
NC(=NCCCCCCN=C(N)/N=C(\N)Nc1ccc(Cl)cc1)/N=C(\N)Nc1ccc(Cl)cc1	DFO2036	1.78 µM (active)

Recorded Potency (compound CN(C)CCCOc1nn(Cc2ccccc2)c2ccccc12 ): inactive

Recorded Potency (compound CCCCCCCCCCCCCCCCOP(=O)([O-])OCC[N+](C)(C)C ): inactive

Recorded Potency (compound CN(C)C(=S)SC(=S)N(C)C ): 10 µM (active)

Recorded Potency (compound CCN1CCC[C@H]1CNC(=O)c1c(OC)ccc(Br)c1OC ): inactive

Recorded Potency (compound Nc1ccc(C(=O)Nc2ccccc2N)cc1 ): inactive

Recorded Potency (compound CC(C)COC(=O)c1ccc(N)cc1 ): inactive

Recorded Potency (compound Cc1cccc(C)c1NC(=O)CN1CCN(CCCC(c2ccc(F)cc2)c2ccc(F)cc2)CC1 ): inactive

----------
# Test system: astro
# Assay: Drug repurposing screens with cells derived from glioblastoma tumor samples (AID 1345199); further: nearly all actives have a fitted effect of over 40% in size
# Measurement Context: viability, ATP luminescence, 48 h; series mostly up to 45.9 µM
Records with an inconclusive call do not appear. Calls of active or inactive are those of the source. Calls follow the shape of the dose curve; as a rule, active = well fitted inhibition curve with a large enough effect; inconclusive = small, poorly fitted or top-dose-only effect; inactive = flat fitted curve, though single readings scatter.
Reply using exactly one outcome from active, inactive

These solved cases illustrate the format of a correct answer.
Molecule	Assigned Class
CCCC(=O)Nc1ccc(OCC(O)CNC(C)C)c(C(C)=O)c1 (stereo not drawn)	inactive
CCN(CCCCOC(=O)c1ccc(OC)c(OC)c1)C(C)Cc1ccc(OC)cc1 (stereo not drawn)	inactive
CC(C)C[C@H]1C(=O)N2CCC[C@H]2[C@]2(O)O[C@](NC(=O)[C@@H]3C=C4c5cccc6[nH]c(Br)c(c56)C[C@H]4N(C)C3)(C(C)C)C(=O)N12	inactive

(Q) Could you please tell me the result logged for NC(=NCCCCCCN=C(N)/N=C(\N)Nc1ccc(Cl)cc1)/N=C(\N)Nc1ccc(Cl)cc1 in this assay?
(A) active

(Q) Could you please tell me the result logged for CCCCN1CCCC1C(=O)Nc1c(C)cc(C)cc1C (stereo not drawn) in this assay?
(A) inactive

(Q) Could you please tell me the result logged for CN=C(NC#N)Nc1ccc(C2=NNC(=O)CC2C)cc1 (stereo not drawn) in this assay?
(A) inactive

(Q) Could you please tell me the result logged for O=C(N/N=C/c1ccccc1O)c1ccncc1 in this assay?
(A) inactive

----------
# key: entry, value: activity, negative = inhibition
# Assay: qHTS profiling for inhibitors of Plasmodium falciparum proliferation (AID 504749); further: nearly all actives have a fitted effect of over 60% in size;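 on activity, negative = inhibition: 0% = DMSO vehicle and full inhibition = artemisinin control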
# Measurement Context: P. falciparum in erythrocytes, SYBR Green DNA, 72 h; at 12.8 µM (top of the series); parasite line B
Inconclusive results are not listed.
Write the number in % without appending the unit.

# annotated cases, reported activity, negative = inhibition shown
Smiles Entry	Unit Name	activity, negative = inhibition
CCOC(=O)n1ccn(C)c1=S	%	-6.82
CC(C)(C(=O)c1cccnc1)c1cccnc1	%	-23.5
Cc1cccc(C)c1NC(=O)CN1CCN(CCCC(c2ccc(F)cc2)c2ccc(F)cc2)CC1	%	-3.17
C[C@H](O)C(=O)Nc1c(I)c(C(=O)NC(CO)CO)c(I)c(C(=O)NC(CO)CO)c1I	%	10.5

Please examine the following record next.
Recorded activity, negative = inhibition (molecule O=C1c2ccccc2C(=O)C1c1ccccc1 ): 11.5

----------
# System: CP252
# Assay: qHTS profiling for inhibitors of Plasmodium falciparum proliferation (AID 504749); further: nearly all actives have a fitted effect of over 60% in size; further: potency means the concentration at half of the fitted maximal effect
# Measurement Context: P. falciparum in erythrocytes, SYBR Green DNA, 72 h; series mostly up to 28.7 µM
Inconclusive results are not listed. The source made the active and inactive calls. Calls follow the shape of the dose curve; as a rule, active = well fitted inhibition curve with a large enough effect; inconclusive = small, poorly fitted or top-dose-only effect; inactive = flat fitted curve, though single readings scatter.
Quantity: Potency

# annotated cases, reported Potency shown
Compound	Quantity	Obs Value
O=C(O)c1cc2cc(Cc3cccnc3)ccc2o1	Potency	inactive
CCCCCCCCCCCCCCCCOP(=O)([O-])OCC[N+](C)(C)C	Potency	inactive
CCOC(=O)OC(C)OC1=C(C(=O)Nc2ccccn2)N(C)S(=O)(=O)c2ccccc21 (centres undefined)	Potency	inactive
O=S1(=O)c2cccc3cccc(c23)N1CCCN1CCN(c2ccc(F)cc2)CC1	Potency	inactive
CC[N+](CC)(CCNC(=O)C(=O)NCC[N+](CC)(CC)Cc1ccccc1Cl)Cc1ccccc1Cl	Potency	4.47 µM (active)
O=C(O)CNC(=O)c1ccccc1	Potency	inactive

Recorded Potency (compound O=C(O)CCCCC(=O)O ): inactive

Recorded Potency (compound c1ccc(-c2ccc(C(c3ccccc3)n3ccnc3)cc2)cc1 (centres undefined) ): 10 µM (active)

Recorded Potency (compound CC(=O)N(O)CCCCCNC(=O)CCC(=O)N(O)CCCCCNC(=O)CCC(=O)N(O)CCCCCN ): inactive

Recorded Potency (compound CC(=O)c1ccc2c(c1)N(CCCN1CCC(CCO)CC1)c1ccccc1S2 ): inactive

Recorded Potency (compound CCN1CCCC1=O ): inactive

Recorded Potency (compound CC(O)(P(=O)(O)O)P(=O)(O)O ): inactive

Recorded Potency (compound CCOc1ccc(Cc2nccc3cc(OCC)c(OCC)cc23)cc1OCC ): inactive

Recorded Potency (compound CN1CCC(=C2c3ccccc3Sc3ccccc32)CC1 ): 7.08 µM (active)

Recorded Potency (compound CC/C(=C(/CC)c1ccc(O)cc1)c1ccc(O)cc1 ): inactive

Recorded Potency (compound C[N+]1(CCCCC[N+]2(C)CCCC2)CCCC1 ): inactive

Recorded Potency (compound Cc1cccc(C)c1NC(=O)CN1CCN(CCCC(c2ccc(F)cc2)c2ccc(F)cc2)CC1 ): inactive

Recorded Potency (compound COC(=O)[C@@H]1CC2=CC(=O)CC[C@]2(C)[C@@]23O[C@@H]2C[C@@]2(C)[C@@H](CC[C@@]24CCC(=O)O4)[C@H]13 ): inactive

Recorded Potency (compound Nc1ccc(C(=O)Nc2ccccc2N)cc1 ): inactive

# credit: PubChem BioAssay (NCATS)
